Biological target: NS3-NS4 protease (full-length NS3/NS4A-2) (Hepatitis C virus genotype 1a, UniProt P27958)
Construct: Recombinant E. coli or Baculovirus full-length NS3 was diluted to 3.33 μM with assay buffer; made in house; host or cells: E. coli or baculovirus (insect cells)
Sequence (P27958 1027-1657): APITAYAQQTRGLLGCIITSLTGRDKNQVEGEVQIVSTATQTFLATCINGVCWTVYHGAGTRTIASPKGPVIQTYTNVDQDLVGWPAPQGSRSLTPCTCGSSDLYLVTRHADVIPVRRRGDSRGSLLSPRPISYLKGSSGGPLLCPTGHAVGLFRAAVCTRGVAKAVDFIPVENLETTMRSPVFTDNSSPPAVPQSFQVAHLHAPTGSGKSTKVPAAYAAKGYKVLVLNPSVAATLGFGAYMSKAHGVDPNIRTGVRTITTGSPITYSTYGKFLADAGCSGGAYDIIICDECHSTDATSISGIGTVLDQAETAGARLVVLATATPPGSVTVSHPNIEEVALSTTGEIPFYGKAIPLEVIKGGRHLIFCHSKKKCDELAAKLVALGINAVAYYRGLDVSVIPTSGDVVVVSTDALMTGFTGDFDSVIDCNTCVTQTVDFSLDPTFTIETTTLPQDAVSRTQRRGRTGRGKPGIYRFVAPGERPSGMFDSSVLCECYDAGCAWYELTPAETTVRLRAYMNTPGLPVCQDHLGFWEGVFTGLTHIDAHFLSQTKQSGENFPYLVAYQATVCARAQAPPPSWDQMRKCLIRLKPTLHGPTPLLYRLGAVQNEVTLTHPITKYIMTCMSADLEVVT
Experiment: NS3-NS4 protease assay / NS3 inhibition assay (RETS1 substrate, fluorescence kinetic read)
Assay type: biochemical
Details: read-out: NS3-NS4 IC50
measure.name: IC50

The following compounds have reported results that may help.
CCCS(=O)(=O)NC(=O)[C@@]12C[C@H]1/C=C\CCCCC[C@H](NC(=O)OC(C)(C)C)C(=O)N1CCC[C@H]1C(=O)N2 :: < 1 µM
CC(C)(C)OC(=O)N[C@H]1CCN(S(=O)(=O)c2ccccc2[N+](=O)[O-])CC/C=C\[C@@H]2C[C@@]2(C(=O)O)NC(=O)[C@@H]2C[C@@H](OC(=O)N3Cc4cccc(F)c4C3)CN2C1=O :: < 0.1 µM

Please turn your attention to the following entry.
**Query** Look up and report IC50, with NS3-NS4 protease (full-length NS3/NS4A-2) (Hepatitis C virus genotype 1a, UniProt P27958) as system, for CC1CCCCN1S(=O)(=O)NC(=O)[C@@]12C[C@H]1/C=C\CCCCC[C@H](NC(=O)OC(C)(C)C)C(=O)N1CCC[C@H]1C(=O)N2 (stereo partly drawn)
**Result** < 10 µM
